Data origin: ChEMBL document CHEMBL1125335

- EXPERIMENT: Inhibitory activity against c-AMP phosphodiesterase in guinea pig tracheal muscle.
METRIC: Ki (µM)

STRUCTURE	Ki (µM)
CCCn1c(=O)[nH]c(=O)c2c1ncn2CC	13.2

P. CCCCn1c(=O)n(C)c(=O)c2[nH]cnc21
Q. CCCn1c(=O)n(CC)c(=O)c2c1ncn2C
R. CCCCn1c(=O)c2c(ncn2C)n(CCC)c1=O
**Q:** Ascending sort, Ki. Present the labels in the sequence the task asks for.
**A:** P, Q, R

====

- SUBJECT OF TEST: Adenosine receptor A1 (Cavia porcellus)
- Sequence (whole entry): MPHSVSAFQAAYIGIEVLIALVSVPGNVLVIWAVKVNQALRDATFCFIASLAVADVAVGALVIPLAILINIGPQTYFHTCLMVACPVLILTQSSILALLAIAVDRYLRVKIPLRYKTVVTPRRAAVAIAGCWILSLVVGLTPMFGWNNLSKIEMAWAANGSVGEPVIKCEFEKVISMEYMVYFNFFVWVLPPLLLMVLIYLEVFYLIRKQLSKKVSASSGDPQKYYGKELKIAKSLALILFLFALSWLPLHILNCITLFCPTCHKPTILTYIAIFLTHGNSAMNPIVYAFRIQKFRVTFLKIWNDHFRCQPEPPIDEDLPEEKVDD
- EXPERIMENT: Positive chronotropic effect on isolated guinea pig right atrium (heart stimulation).
- Format: functional, tissue-based
- CONDITION LABEL: Cardiac atrium
METRIC: EC15 (µM)

Please review the following examples before continuing.
MOLECULE	UNIT DESCRIPTOR	EC15
Cn1c(=O)c2[nH]cnc2n(C)c1=O	µM	62
CCCn1c(=O)c2nc[nH]c2n(C)c1=O	µM	36.2
CCCn1c(=O)n(C)c(=O)c2[nH]cnc21	µM	3.3
CCCn1c(=O)[nH]c(=O)c2nc[nH]c21 [ENPROFYLLINE]	µM	18.3
CCCn1cnc2c1c(=O)n(C)c(=O)n2CCC	µM	45.2

I. CCCCn1c(=O)n(C)c(=O)c2[nH]cnc21
II. CCCCn1c(=O)[nH]c(=O)c2[nH]cnc21
**Q:** Which record shows the lower EC15: the first, I , or the second, II ? Lab log: write the label of the selected item as the result.
**A:** I

P. CCCCn1c(=O)c2nc[nH]c2n(C)c1=O
Q. CCCn1c(=O)c2nc[nH]c2n(CCC)c1=O
**Q:** Which record shows the lower EC15: the first, P , or the second, Q ? Lab log: write the label of the selected item as the result.
**A:** Q

====

- SUBJECT OF TEST: Adenosine receptor A1 (Cavia porcellus) (UniProt P47745)
- Sequence (whole entry): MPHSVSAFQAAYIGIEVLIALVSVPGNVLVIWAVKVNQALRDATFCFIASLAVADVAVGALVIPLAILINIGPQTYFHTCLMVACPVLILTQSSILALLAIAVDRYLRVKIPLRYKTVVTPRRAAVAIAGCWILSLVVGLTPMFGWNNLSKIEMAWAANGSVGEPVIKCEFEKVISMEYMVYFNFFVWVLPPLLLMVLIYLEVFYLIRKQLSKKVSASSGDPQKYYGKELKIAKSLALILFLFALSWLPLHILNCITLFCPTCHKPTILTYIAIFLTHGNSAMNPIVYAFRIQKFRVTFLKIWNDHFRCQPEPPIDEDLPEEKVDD
- EXPERIMENT: Positive chronotropic effect on isolated guinea pig right atrium (heart stimulation).
- Assay type: functional, tissue-based
- CONDITION LABEL: Cardiac atrium
EC15: recorded values

Please review the following examples before continuing.
STRUCTURE	SUBJECT OF TEST	EC15
CCCn1c(=O)c2c(ncn2C)n(CCC)c1=O	Adenosine receptor A1 (Cavia porcellus) (UniProt P47745)	45.8 µM
CCCCn1c(=O)[nH]c2[nH]cnc2c1=O	Adenosine receptor A1 (Cavia porcellus) (UniProt P47745)	> 100 µM

**Q:** Given the molecule CCCn1c(=O)n(CC)c(=O)c2[nH]cnc21 , what is its reported EC15?
**A:** 6.1 µM

**Q:** Quick one: CCCn1c(=O)n(C)c(=O)c2c1ncn2CC
**A:** > 100 µM

**Q:** Quick one: CCCn1c(=O)[nH]c(=O)c2c1ncn2C
**A:** > 100 µM

**Q:** Quick one: Cn1c(=O)[nH]c2[nH]cnc2c1=O
**A:** > 100 µM

**Q:** Quick one: CCCn1c(=O)[nH]c2[nH]cnc2c1=O
**A:** > 100 µM

**Q:** Quick one: CCn1c(=O)[nH]c2[nH]cnc2c1=O
**A:** > 100 µM

**Q:** Quick one: CCCn1c(=O)n(C)c(=O)c2c1ncn2C
**A:** 45.4 µM

**Q:** Quick one: CCCn1cnc2c1c(=O)[nH]c(=O)n2CCC
**A:** > 100 µM
